test: small-molecule binders of probe aNOTCH3, primary screen, biochemical, small-molecule microarray, 635/667 nm fluorescence (AID 1120); conditions: higher = more signal;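 also: probe is a biotin-tagged antibody raised against NOTCH3 rather than NOTCH3 protein; score merges spot fluorescence near 667 nm with spot signal to noise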
readout_type: composite z-score

Please review the entries below; each comes with its answer.
molecule | readout_value
O=C1OCCC/C=C\[C@H]2OC34C=CCN(CCN5CCOCC5)C(=O)[C@H]3N(CCCCCO)C(=O)[C@@H]4C12 (some centres undefined) | -0.246
CN1C2C=C(c3ccc(CO)cc3)C(C3C(=O)N(C(N)=O)C(=O)C32)C1c1cccs1 (centres undefined) | 0.0261
COC(=O)c1c(CC[C@@H](CO)NC(=O)N[C@H](Cn2cc(-c3cncn3C)nn2)C(C)C)oc(C(C)=O)c1C(=O)OC | -0.0647
COCCCNC(=O)[C@@]1(c2ccc([N+](=O)[O-])cc2)CC(=O)N(C2CCCCC2)[C@@H]1c1ccc(CO)cc1 | -0.391
CO[C@@H]1COC(=O)[C@H](C)NC(=O)CC=C[C@@H](C)[C@H](NS(=O)(=O)c2ccc(C)cc2)COC(=O)CC=C[C@@H]1C | 0.0066

Provide measured composite z-score value, entry: C=CC[C@@]1(C(=O)N2CCOCC2)N=C(c2ccc(OCCCO)cc2)O[C@@H]1c1ccccc1
-0.223
